systemTested: HLA-A*0201 (human)
assayOverview: inhibition of 125I-labelled standard peptide binding to purified HLA-A*0201, gel filtration
protocolConditions: remark: other sources report otherwise
Criterion: binding affinity ratio (IC50 of standard peptide / IC50 of test peptide) meeting or surpassing 0.0008. Met: met. Not met: not met.

hey, is binding affinity ratio (IC50 of standard peptide / IC50 of test peptide) for this one >= 0.0008? CALPEKPAV (modifications not checked)
not met

hey, is binding affinity ratio (IC50 of standard peptide / IC50 of test peptide) for this one >= 0.0008? CARAYSEKVT (modifications not checked) [… (Kallikrein, position 184)]
met

hey, is binding affinity ratio (IC50 of standard peptide / IC50 of test peptide) for this one >= 0.0008? CLKKNSQVWL (modifications not checked) [… (Kallikrein, position 66)]
not met

hey, is binding affinity ratio (IC50 of standard peptide / IC50 of test peptide) for this one >= 0.0008? CAGRWTGGKST (modifications not checked) [… (PSA, position 194)]
met

Origin of the recorded values: patent US20070020327A1
